Reference for the values: ChEMBL document CHEMBL4765319

measured.on: CDK2/Cyclin A2 (Homo sapiens) (UniProt P24941+P20248)
assay.comment: Inhibition of human CDK2/cyclin A assessed as residual activity at 10 uM in presence of ATP by ADP-glo luminescent assay relative to control
Type: protein-complex assay
measured.endpoint: Activity (%)

Use the examples below as a reference point.
CN1CC[C@H](c2c(O)cc(O)c3c(=O)cc(-c4ccccc4Cl)oc23)[C@H](O)C1 | 11
CN1CC=C(c2c(O)cc(O)c3c(=O)cc(-c4ccc(Sc5nc6ccccc6n5C)cc4)oc23)CC1 | 25
CN1CC=C(c2c(O)cc(O)c3c(=O)cc(-c4ccc(Sc5nc6ccccc6[nH]5)cc4Cl)oc23)CC1 | 22

[a] CN1CC=C(c2c(O)cc(O)c3c(=O)cc(-c4ccc(Sc5nc6ccccc6[nH]5)cc4)oc23)CC1
[b] CN1CC=C(c2c(O)cc(O)c3c(=O)cc(-c4ccc(Sc5nc(-c6ccccc6)c[nH]5)cc4)oc23)CC1
[c] CN1CC=C(c2c(O)cc(O)c3c(=O)cc(-c4ccc(Sc5nc6ccccc6n5C)cc4Cl)oc23)CC1
Returns the items ordered by Activity, from maximum to minimum. Quick reminder: the answer is the labels in the order asked. c, b, a
(c: 30%, b: 14%, a: 5%)

---

Species: Sus scrofa
assay.comment: Inhibition of porcine CK1delta/epsilon assessed as residual activity at 10 uM in presence of ATP by ADP-glo luminescent assay relative to control
measured.endpoint: Activity (%)

Use the examples below as a reference point.
CN1CC=C(c2c(O)cc(O)c3c(=O)cc(-c4ccc(Sc5nc6ccccc6[nH]5)cc4)oc23)CC1 | 69
CN1CC=C(c2c(O)cc(O)c3c(=O)cc(-c4ccc(Sc5nc6ccccc6n5C)cc4)oc23)CC1 | 41
CN1CC=C(c2c(O)cc(O)c3c(=O)cc(-c4ccc(Sc5nc6ccccc6n5C)cc4Cl)oc23)CC1 | 62
CN1CC=C(c2c(O)cc(O)c3c(=O)cc(-c4ccc(Sc5nc(-c6ccccc6)c[nH]5)cc4)oc23)CC1 | 43

[P] CN1CC=C(c2c(O)cc(O)c3c(=O)cc(-c4ccc(Sc5nc6ccccc6[nH]5)cc4Cl)oc23)CC1
[Q] CN1CC[C@H](c2c(O)cc(O)c3c(=O)cc(-c4ccccc4Cl)oc23)[C@H](O)C1
Could you determine which record has the numerically smaller Activity? Candidates: P and Q Please respond with the label that marks your chosen entry. P
(P: 48%, Q: 78%)

---

measured.on: CDK9/cyclin T1 (Homo sapiens) (UniProt O60563+P50750)
assay.comment: Inhibition of human CDK9/cyclin T assessed as residual activity at 10 uM in presence of ATP by ADP-glo luminescent assay relative to control
Assay type: protein-complex assay
measured.endpoint: Activity (%)

Use the examples below as a reference point.
CN1CC=C(c2c(O)cc(O)c3c(=O)cc(-c4ccc(Sc5nc(-c6ccccc6)c[nH]5)cc4)oc23)CC1 | 0
CN1CC[C@H](c2c(O)cc(O)c3c(=O)cc(-c4ccccc4Cl)oc23)[C@H](O)C1 | 1
CN1CC=C(c2c(O)cc(O)c3c(=O)cc(-c4ccc(Sc5nc6ccccc6[nH]5)cc4)oc23)CC1 | 10

[1] CN1CC=C(c2c(O)cc(O)c3c(=O)cc(-c4ccc(Sc5nc6ccccc6n5C)cc4Cl)oc23)CC1
[2] CN1CC=C(c2c(O)cc(O)c3c(=O)cc(-c4ccc(Sc5nc6ccccc6n5C)cc4)oc23)CC1
Could you determine which record has the numerically smaller Activity? Candidates: 1 and 2 Please respond with the label that marks your chosen entry. 2

---

Tested on: Leishmania major
assay.comment: Inhibition of Leishmania major CK1 assessed as residual activity at 10 uM in presence of ATP by ADP-glo luminescent assay relative to control
measured.endpoint: Activity (%)

Use the examples below as a reference point.
CN1CC[C@H](c2c(O)cc(O)c3c(=O)cc(-c4ccccc4Cl)oc23)[C@H](O)C1 | 61
CN1CC=C(c2c(O)cc(O)c3c(=O)cc(-c4ccc(Sc5nc6ccccc6[nH]5)cc4Cl)oc23)CC1 | 35
CN1CC=C(c2c(O)cc(O)c3c(=O)cc(-c4ccc(Sc5nc6ccccc6[nH]5)cc4)oc23)CC1 | 40

[I] CN1CC=C(c2c(O)cc(O)c3c(=O)cc(-c4ccc(Sc5nc6ccccc6n5C)cc4Cl)oc23)CC1
[II] CN1CC=C(c2c(O)cc(O)c3c(=O)cc(-c4ccc(Sc5nc6ccccc6n5C)cc4)oc23)CC1
Could you determine which record has the numerically smaller Activity? Candidates: I and II Please respond with the label that marks your chosen entry. I
(I: 38%, II: 57%)

---

measured.on: Glycogen synthase kinase-3 beta (Homo sapiens)
Sequence (P49841 whole entry, looked up): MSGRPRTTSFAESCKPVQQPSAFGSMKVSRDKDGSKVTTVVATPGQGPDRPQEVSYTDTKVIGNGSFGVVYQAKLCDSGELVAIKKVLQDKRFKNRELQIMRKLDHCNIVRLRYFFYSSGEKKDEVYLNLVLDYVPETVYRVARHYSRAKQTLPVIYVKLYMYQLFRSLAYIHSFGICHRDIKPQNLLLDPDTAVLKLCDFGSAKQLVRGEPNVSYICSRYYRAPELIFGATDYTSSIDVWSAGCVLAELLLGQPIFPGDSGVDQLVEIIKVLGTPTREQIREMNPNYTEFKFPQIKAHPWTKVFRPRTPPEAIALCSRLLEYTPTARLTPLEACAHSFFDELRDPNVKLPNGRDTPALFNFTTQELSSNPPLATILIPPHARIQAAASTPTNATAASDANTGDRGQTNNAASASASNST
assay.comment: Inhibition of human GSK3beta assessed as residual activity at 1 uM in presence of ATP by ADP-glo luminescent assay relative to control
measured.endpoint: Activity (%)

[a] CN1CC=C(c2c(O)cc(O)c3c(=O)cc(-c4ccc(Sc5nc6ccccc6n5C)cc4)oc23)CC1
[b] CN1CC=C(c2c(O)cc(O)c3c(=O)cc(-c4ccc(Sc5nc6ccccc6[nH]5)cc4Cl)oc23)CC1
[c] CN1CC[C@H](c2c(O)cc(O)c3c(=O)cc(-c4ccccc4Cl)oc23)[C@H](O)C1
[d] CN1CC=C(c2c(O)cc(O)c3c(=O)cc(-c4ccc(Sc5nc6ccccc6[nH]5)cc4)oc23)CC1
Please list these compounds in decreasing order of Activity. Quick reminder: the answer is the labels in the order asked. c, a, b, d

[A] CN1CC=C(c2c(O)cc(O)c3c(=O)cc(-c4ccc(Sc5nc(-c6ccccc6)c[nH]5)cc4)oc23)CC1
[B] CN1CC=C(c2c(O)cc(O)c3c(=O)cc(-c4ccc(Sc5nc6ccccc6n5C)cc4Cl)oc23)CC1
Kindly identify which of A and B has the larger recorded Activity value. Please respond with the label that marks your chosen entry. A
(A: 25%, B: 12%)

---

System: SK-BR-3
assay.comment: Antiproliferative activity against human SK-BR-3 cells assessed as reduction in cell viability incubated for 72 hrs by CellTiter-Blue fluorescence assay
condition.context: SK-BR-3, 72 h
measured.endpoint: IC50 (nM)

CN1CC=C(c2c(O)cc(O)c3c(=O)cc(-c4ccc(Sc5nc6ccccc6[nH]5)cc4)oc23)CC1 | 254

[a] CN1CC=C(c2c(O)cc(O)c3c(=O)cc(-c4ccc(Sc5nc(-c6ccccc6)c[nH]5)cc4)oc23)CC1
[b] CN1CC[C@H](c2c(O)cc(O)c3c(=O)cc(-c4ccccc4Cl)oc23)[C@H](O)C1 [ALVOCIDIB]
Kindly identify which of a and b has the larger recorded IC50 value. Please respond with the label that marks your chosen entry. a
(a: 352 nM, b: 75 nM)

[a] CN1CC=C(c2c(O)cc(O)c3c(=O)cc(-c4ccc(Sc5nc6ccccc6[nH]5)cc4Cl)oc23)CC1
[b] CN1CC=C(c2c(O)cc(O)c3c(=O)cc(-c4ccc(Sc5nc6ccccc6n5C)cc4)oc23)CC1
Kindly identify which of a and b has the larger recorded IC50 value. Please respond with the label that marks your chosen entry. b

---

measured.on: Cyclin-dependent kinase 5/CDK5 activator 1 (Homo sapiens)
Sequence (Q00535 whole entry): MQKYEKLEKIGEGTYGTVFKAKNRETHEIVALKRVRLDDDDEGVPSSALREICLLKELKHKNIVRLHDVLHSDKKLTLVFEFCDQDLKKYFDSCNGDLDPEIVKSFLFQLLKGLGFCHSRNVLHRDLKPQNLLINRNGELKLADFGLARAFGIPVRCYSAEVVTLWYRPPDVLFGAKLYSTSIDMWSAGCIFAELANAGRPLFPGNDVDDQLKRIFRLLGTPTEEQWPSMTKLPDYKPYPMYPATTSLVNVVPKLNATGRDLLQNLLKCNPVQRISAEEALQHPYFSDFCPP
Sequence (Q15078 whole entry, further chain): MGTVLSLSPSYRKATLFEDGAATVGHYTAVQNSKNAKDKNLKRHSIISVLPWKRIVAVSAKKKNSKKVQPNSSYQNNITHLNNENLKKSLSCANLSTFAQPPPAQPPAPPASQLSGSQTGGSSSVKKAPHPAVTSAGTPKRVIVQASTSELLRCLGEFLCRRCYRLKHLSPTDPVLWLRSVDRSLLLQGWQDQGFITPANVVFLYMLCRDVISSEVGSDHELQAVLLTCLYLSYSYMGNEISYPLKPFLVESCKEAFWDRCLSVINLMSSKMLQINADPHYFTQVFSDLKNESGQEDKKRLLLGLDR
assay.comment: Inhibition of human CDK5/p25 in presence of ATP by ADP-glo luminescent assay
measured.endpoint: IC50 (nM)

[1] CN1CC=C(c2c(O)cc(O)c3c(=O)cc(-c4ccc(Sc5nc(-c6ccccc6)c[nH]5)cc4)oc23)CC1
[2] CN1CC=C(c2c(O)cc(O)c3c(=O)cc(-c4ccc(Sc5nc6ccccc6n5C)cc4)oc23)CC1
[3] CN1CC=C(c2c(O)cc(O)c3c(=O)cc(-c4ccc(Sc5nc6ccccc6[nH]5)cc4Cl)oc23)CC1
[4] CN1CC=C(c2c(O)cc(O)c3c(=O)cc(-c4ccc(Sc5nc6ccccc6n5C)cc4Cl)oc23)CC1
[5] CN1CC=C(c2c(O)cc(O)c3c(=O)cc(-c4ccc(Sc5nc6ccccc6[nH]5)cc4)oc23)CC1
Your job: order these 5 records by IC50, ascending. Quick reminder: the answer is the labels in the order asked. 5, 1, 2, 3, 4

---

Species on record: Sus scrofa
assay.comment: Inhibition of porcine GSK3alpha/beta assessed as residual activity at 1 uM in presence of ATP by ADP-glo luminescent assay relative to control
measured.endpoint: Activity (%)

Use the examples below as a reference point.
CN1CC=C(c2c(O)cc(O)c3c(=O)cc(-c4ccc(Sc5nc6ccccc6n5C)cc4Cl)oc23)CC1 | 31
CN1CC=C(c2c(O)cc(O)c3c(=O)cc(-c4ccc(Sc5nc6ccccc6n5C)cc4)oc23)CC1 | 41
CN1CC=C(c2c(O)cc(O)c3c(=O)cc(-c4ccc(Sc5nc(-c6ccccc6)c[nH]5)cc4)oc23)CC1 | 53

[a] CN1CC=C(c2c(O)cc(O)c3c(=O)cc(-c4ccc(Sc5nc6ccccc6[nH]5)cc4)oc23)CC1
[b] CN1CC[C@H](c2c(O)cc(O)c3c(=O)cc(-c4ccccc4Cl)oc23)[C@H](O)C1 [ALVOCIDIB]
Kindly identify which of a and b has the larger recorded Activity value. Please respond with the label that marks your chosen entry. b
(b: 70%, a: 36%)
